Below, each entry is listed with its recorded pIC50.
Target: Axl (Homo sapiens, UniProt P30530)
Construct: endogenous in cells; host or cells: HeLa cells
Sequence (P30530 26-894): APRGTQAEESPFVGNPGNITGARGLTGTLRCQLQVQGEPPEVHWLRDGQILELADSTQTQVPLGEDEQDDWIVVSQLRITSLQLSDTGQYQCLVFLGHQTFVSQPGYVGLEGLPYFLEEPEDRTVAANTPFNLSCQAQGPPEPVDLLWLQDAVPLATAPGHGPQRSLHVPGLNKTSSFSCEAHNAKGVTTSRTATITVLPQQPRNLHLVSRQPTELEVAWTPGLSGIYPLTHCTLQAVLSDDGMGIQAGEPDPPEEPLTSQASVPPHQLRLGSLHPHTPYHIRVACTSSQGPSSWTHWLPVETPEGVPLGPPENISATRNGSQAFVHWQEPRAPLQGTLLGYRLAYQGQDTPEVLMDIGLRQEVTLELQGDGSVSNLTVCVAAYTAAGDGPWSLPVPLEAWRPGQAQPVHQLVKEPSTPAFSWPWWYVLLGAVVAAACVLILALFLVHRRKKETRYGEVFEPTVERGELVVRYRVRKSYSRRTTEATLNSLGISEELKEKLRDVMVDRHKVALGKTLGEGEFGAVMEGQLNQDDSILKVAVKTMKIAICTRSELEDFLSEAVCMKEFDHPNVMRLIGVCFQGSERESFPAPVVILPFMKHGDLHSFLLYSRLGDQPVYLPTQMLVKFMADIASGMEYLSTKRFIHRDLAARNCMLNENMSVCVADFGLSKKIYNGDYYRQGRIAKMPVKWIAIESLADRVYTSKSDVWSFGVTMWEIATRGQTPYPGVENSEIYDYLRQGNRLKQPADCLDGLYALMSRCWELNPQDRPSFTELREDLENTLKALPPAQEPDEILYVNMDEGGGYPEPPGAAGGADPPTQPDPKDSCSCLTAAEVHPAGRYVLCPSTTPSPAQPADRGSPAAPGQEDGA
Assay: Phospho-Akt in-cell Western assay
Assay type: cell-based
Details: Table 4, formula (III); Hela cells, Axl antibody cross-linking stimulation, phospho-Akt readout
pIC50: −log10 of the molar value.
TEST_READOUT: pIC50

smiles_str=CC(C)N[C@H]1CCc2ccc(Nc3nc(N)n(-c4cc(-c5ccccc5)c5c(n4)C4CCN5CC4)n3)cc2CC1 measurement_target="Axl (Homo sapiens, UniProt P30530)" reported_result="> 6.00"
smiles_str=Nc1nc(Nc2ccc3c(c2)CC[C@@H](N)CC3)nn1-c1cc(-c2ccccc2)c2c(n1)C1CCN2CC1 measurement_target="Axl (Homo sapiens, UniProt P30530)" reported_result="> 6.00"
smiles_str=CC(C)CN(CC(C)C)[C@H]1CCc2ccc(Nc3nc(N)n(-c4cc(-c5ccccc5)c5c(n4)C4CCN5CC4)n3)cc2CC1 measurement_target="Axl (Homo sapiens, UniProt P30530)" reported_result="> 6.00"
smiles_str=Nc1nc(Nc2ccc3c(c2)CC[C@@H](NC2CCC2)CC3)nn1-c1cc(-c2ccccc2)c2c(n1)C1CCN2CC1 measurement_target="Axl (Homo sapiens, UniProt P30530)" reported_result="> 6.00"
smiles_str=CC(C)CN[C@H]1CCc2ccc(Nc3nc(N)n(-c4cc(-c5ccccc5)c5c(n4)C4CCN5CC4)n3)cc2CC1 measurement_target="Axl (Homo sapiens, UniProt P30530)" reported_result="> 6.00"
smiles_str=CCCN(CCC)[C@H]1CCc2ccc(Nc3nc(N)n(-c4cc(-c5ccccc5)c5c(n4)C4CCN5CC4)n3)cc2CC1 measurement_target="Axl (Homo sapiens, UniProt P30530)" reported_result="> 6.00"
smiles_str=CCN(CC)[C@H]1CCc2ccc(Nc3nc(N)n(-c4cc(-c5ccccc5)c5c(n4)C4CCN5CC4)n3)cc2CC1 measurement_target="Axl (Homo sapiens, UniProt P30530)" reported_result="> 6.00"
smiles_str=CN(C)[C@H]1CCc2ccc(Nc3nc(N)n(-c4cc(-c5ccccc5)c5c(n4)C4CCN5CC4)n3)cc2CC1 measurement_target="Axl (Homo sapiens, UniProt P30530)" reported_result="< 4.70"

----------
Biological target: Axl (Homo sapiens, UniProt P30530)
Construct: endogenous in cells; host or cells: HeLa cells
Sequence (P30530 26-894): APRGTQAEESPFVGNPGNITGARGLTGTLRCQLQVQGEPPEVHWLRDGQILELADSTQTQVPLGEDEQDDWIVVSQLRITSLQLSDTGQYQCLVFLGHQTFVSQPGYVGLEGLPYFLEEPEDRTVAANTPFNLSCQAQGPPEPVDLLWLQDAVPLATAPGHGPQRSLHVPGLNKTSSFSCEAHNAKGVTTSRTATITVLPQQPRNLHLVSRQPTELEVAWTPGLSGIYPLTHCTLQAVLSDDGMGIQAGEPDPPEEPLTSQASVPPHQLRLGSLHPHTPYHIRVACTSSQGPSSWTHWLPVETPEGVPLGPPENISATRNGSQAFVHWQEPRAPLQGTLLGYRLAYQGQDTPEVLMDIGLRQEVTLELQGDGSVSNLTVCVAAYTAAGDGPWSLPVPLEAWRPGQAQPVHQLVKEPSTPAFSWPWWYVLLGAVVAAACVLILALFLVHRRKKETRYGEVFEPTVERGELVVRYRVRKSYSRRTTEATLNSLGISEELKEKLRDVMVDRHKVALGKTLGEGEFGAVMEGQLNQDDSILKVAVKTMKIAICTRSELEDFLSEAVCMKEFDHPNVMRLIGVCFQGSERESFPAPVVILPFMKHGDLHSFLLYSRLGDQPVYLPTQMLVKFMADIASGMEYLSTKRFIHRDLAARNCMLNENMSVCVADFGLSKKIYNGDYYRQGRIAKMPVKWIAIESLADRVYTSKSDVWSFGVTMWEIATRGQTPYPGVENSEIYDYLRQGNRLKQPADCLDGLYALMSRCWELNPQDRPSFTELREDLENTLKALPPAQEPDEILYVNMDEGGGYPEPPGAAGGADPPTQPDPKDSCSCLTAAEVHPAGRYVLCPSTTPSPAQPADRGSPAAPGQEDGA
Assay: Phospho-Akt in-cell Western assay
Assay type: cell-based
Conditions: Table 2, formula (Ib); Hela cells, Axl antibody cross-linking stimulation, phospho-Akt readout
pIC50: −log10 of the molar value.
Parameter pIC50: see the listing below.
TEST_READOUT: pIC50

compound="CN(C)CC(=O)N1CCc2ncc(Nc3nc(N)n(-c4cc(-c5ccccc5)c5c(n4)C4CCN5CC4)n3)cc2C1 [Compound 4]" reported_result="> 6.00"
compound="Nc1nc(Nc2cnc3c(c2)CNCC3)nn1-c1cc(-c2ccccc2)c2c(n1)C1CCN2CC1 [Compound 2]" reported_result="> 6.00"
compound="Nc1nc(Nc2cnc3c(c2)CN(C2CCCC2)CC3)nn1-c1cc(-c2ccccc2)c2c(n1)C1CCN2CC1 [Compound 6]" reported_result="> 6.00"

----------
Biological target: Axl (Homo sapiens, UniProt P30530)
Construct: endogenous in cells; host or cells: HeLa cells
Test: Phospho-Akt in-cell Western assay
Assay type: cell-based
Conditions: Table 5, formula (IVa); Hela cells, Axl antibody cross-linking stimulation, phospho-Akt readout
TEST_READOUT: IC50

smiles_str=Cc1cccc(-c2nnc(-n3nc(Nc4ccc(N5CCC(N6CCCC6)CC5)c(F)c4)nc3N)c3c2C2CCC3CC2)c1 test_readout=IC50 reported_result="1000 to 10000 nM"
smiles_str=Nc1nc(Nc2ccc(N3CCC(N4CCCC4)CC3)c(F)c2)nn1-c1nnc(-c2ccccc2Cl)c2c1C1CCC2CC1 test_readout=IC50 reported_result="< 1000 nM"
smiles_str=Nc1nc(Nc2ccc(N3CCC(N4CCCC4)CC3)c(F)c2)nn1-c1nnc(-c2ccc3c(c2)OCO3)c2c1C1CCC2CC1 test_readout=IC50 reported_result="< 1000 nM"
smiles_str=Nc1nc(Nc2ccc(N3CCC(N4CCCC4)CC3)c(F)c2)nn1-c1nnc(Cl)c2c1C1CCC2CC1 test_readout=IC50 reported_result="< 1000 nM"
smiles_str=N#Cc1cccc(-c2nnc(-n3nc(Nc4ccc(N5CCC(N6CCCC6)CC5)c(F)c4)nc3N)c3c2C2CCC3CC2)c1 test_readout=IC50 reported_result="< 1000 nM"
smiles_str=Nc1nc(Nc2ccc(N3CCC(N4CCCC4)CC3)c(F)c2)nn1-c1nnc(-c2ccncc2)c2c1C1CCC2CC1 test_readout=IC50 reported_result="< 1000 nM"

----------
Target: Axl (Homo sapiens, UniProt P30530)
Construct: endogenous in cells; host or cells: HeLa cells
Sequence (P30530 26-894): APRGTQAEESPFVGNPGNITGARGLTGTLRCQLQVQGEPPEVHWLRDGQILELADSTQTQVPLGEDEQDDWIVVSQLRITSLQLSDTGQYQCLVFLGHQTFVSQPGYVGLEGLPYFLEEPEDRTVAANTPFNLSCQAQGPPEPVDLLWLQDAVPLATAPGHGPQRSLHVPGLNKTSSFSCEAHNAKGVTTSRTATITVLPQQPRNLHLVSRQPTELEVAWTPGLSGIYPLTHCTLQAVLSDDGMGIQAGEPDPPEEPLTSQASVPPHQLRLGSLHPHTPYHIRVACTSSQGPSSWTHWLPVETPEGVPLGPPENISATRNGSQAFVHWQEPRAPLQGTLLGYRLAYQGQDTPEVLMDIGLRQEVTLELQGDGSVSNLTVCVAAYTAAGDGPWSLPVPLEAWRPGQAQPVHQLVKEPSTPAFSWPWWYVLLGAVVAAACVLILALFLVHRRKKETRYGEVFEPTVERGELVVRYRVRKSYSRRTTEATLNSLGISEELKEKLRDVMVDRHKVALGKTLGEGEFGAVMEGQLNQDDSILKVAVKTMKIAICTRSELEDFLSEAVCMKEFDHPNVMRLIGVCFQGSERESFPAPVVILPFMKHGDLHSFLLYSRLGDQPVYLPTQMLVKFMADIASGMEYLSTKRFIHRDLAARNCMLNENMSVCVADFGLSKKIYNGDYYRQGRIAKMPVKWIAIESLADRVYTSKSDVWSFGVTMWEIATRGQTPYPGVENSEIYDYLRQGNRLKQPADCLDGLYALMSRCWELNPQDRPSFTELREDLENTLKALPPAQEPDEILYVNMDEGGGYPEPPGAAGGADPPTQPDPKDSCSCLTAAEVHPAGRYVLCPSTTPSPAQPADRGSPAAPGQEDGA
Experiment: Phospho-Akt in-cell Western assay
Assay type: cell-based
Conditions: Table 6, formula (IVb); Hela cells, Axl antibody cross-linking stimulation, phospho-Akt readout
pIC50: −log10 of the molar value.
TEST_READOUT: pIC50

smiles_str=Nc1nc(Nc2ccc(N3CCC(N4CCCC4)CC3)c(F)c2)n(-c2nnc(Cl)c3c2C2CCC3CC2)n1 test_readout=pIC50 reported_result="5.00 to 6.00"
